Catalogue of inhibition at 1000 µg/mL readings, one per entry.
# system-tested: UniProtKB P01556
# procedure-details: biochemical
# settings: read-out: inhibition of binding of cholera toxin to ganglioside GD1b

Observe how each entry below is paired with its result.
q: Returns the measured inhibition at 1000 µg/mL for the input compound. Input: CC(C)C[C@H](NC(C)CC(S[C@@H]1O[C@H](CO)[C@H](O)[C@H](O)[C@H]1O)c1ccccc1)C(=O)O (stereo partly shown) [Example G3]
a: < 20%

q: // lookup inhibition at 1000 µg/mL for OC[C@H]1O[C@@H](SC2CCCC(O)C2)[C@H](O)[C@@H](O)[C@H]1O (stereo partly shown) [Example A10]
a: < 20%

q: Entry under review: CC(O)CC(C)S[C@@H]1O[C@H](CO)[C@H](O)[C@H](O)[C@H]1O (stereo partly shown) [Example A8] . Reported inhibition at 1000 µg/mL?
a: < 20%

Read the next record carefully.
q: Given CC1(C)CC(O)CC1S[C@@H]1O[C@H](CO)[C@H](O)[C@H](O)[C@H]1O (stereo partly shown) [Example A6] , state its recorded inhibition at 1000 µg/mL.
a: < 20%

###

# system-tested: cholera toxin (Vibrio cholerae serotype O1, UniProt P01556)
# procedure-details: biochemical
# settings: read-out: inhibition of binding of cholera toxin to ganglioside GD1b
Quick reference: inhibition at 1000 µg/mL of the listed items.

Examples with answers:
q: Need inhibition at 1000 µg/mL of CC1CCCC(NC2CC(S[C@@H]3O[C@H](CO)[C@H](O)[C@H](O)[C@H]3O)C(C)(C)C2)C1 (stereo partly drawn) , thanks.
a: ≥ 20%

q: Endpoint output: inhibition at 1000 µg/mL of CC(C)C[C@H](NC1CCCCC(S[C@@H]2O[C@H](CO)[C@H](O)[C@H](O)[C@H]2O)C1)C(=O)O (stereo partly drawn) . Value?
a: ≥ 20%

q: For the compound CC1(C)CCC(NCC(=O)O)CC1S[C@@H]1O[C@H](CO)[C@H](O)[C@H](O)[C@H]1O (stereo partly drawn) , what inhibition at 1000 µg/mL is on record?
a: < 20%

q: Reported inhibition at 1000 µg/mL, compound NC1CCCC1S[C@@H]1O[C@H](CO)[C@H](O)[C@H](O)[C@H]1O (stereo partly drawn) : ____
a: < 20%

Continuing:
q: Can you look up the measured inhibition at 1000 µg/mL of CC(=O)NC(C)CC(S[C@@H]1O[C@H](CO)[C@H](O)[C@H](O)[C@H]1O)c1ccccc1 (stereo partly drawn) for me?
a: < 20%

q: Would you kindly share the measured inhibition at 1000 µg/mL for CC(CC(C)S[C@@H]1O[C@H](CO)[C@H](O)[C@H](O)[C@H]1O)N[C@@H](Cc1c[nH]cn1)C(=O)O (stereo partly drawn) ?
a: < 20%

q: For the compound O=C(O)[C@H](Cc1c[nH]c2ccccc12)NC1CCCCC1S[C@@H]1O[C@H](CO)[C@H](O)[C@H](O)[C@H]1O (stereo partly drawn) , what inhibition at 1000 µg/mL is on record?
a: < 20%

q: Quick one: inhibition at 1000 µg/mL of O=C(O)[C@H](Cc1c[nH]c2ccccc12)NC1CCCC1S[C@@H]1O[C@H](CO)[C@H](O)[C@H](O)[C@H]1O (stereo partly drawn) ?
a: ≥ 20%

q: // returns reported inhibition at 1000 µg/mL for input OC[C@H]1O[C@@H](SCC2C3CCC(C3)C2O)[C@H](O)[C@@H](O)[C@H]1O (stereo partly drawn)
a: < 20%

q: Name the reported inhibition at 1000 µg/mL value associated with the compound CC(=O)NC1CCCC1S[C@@H]1O[C@H](CO)[C@H](O)[C@H](O)[C@H]1O (stereo partly drawn)
a: < 20%

q: Tell me the measured inhibition at 1000 µg/mL of N=C(N)NCCC[C@H](NC1CCCC1S[C@@H]1O[C@H](CO)[C@H](O)[C@H](O)[C@H]1O)C(=O)O (stereo partly drawn) , please.
a: ≥ 20%

q: For the compound shown here, CNC1CC(S[C@@H]2O[C@H](CO)[C@H](O)[C@H](O)[C@H]2O)C(C)(C)C1 (stereo partly drawn) , give the reported inhibition at 1000 µg/mL.
a: ≥ 20%
